- target.system: human recombinant Aurora A (Homo sapiens (Human), UniProt O14965)
- Sequence (O14965 whole entry): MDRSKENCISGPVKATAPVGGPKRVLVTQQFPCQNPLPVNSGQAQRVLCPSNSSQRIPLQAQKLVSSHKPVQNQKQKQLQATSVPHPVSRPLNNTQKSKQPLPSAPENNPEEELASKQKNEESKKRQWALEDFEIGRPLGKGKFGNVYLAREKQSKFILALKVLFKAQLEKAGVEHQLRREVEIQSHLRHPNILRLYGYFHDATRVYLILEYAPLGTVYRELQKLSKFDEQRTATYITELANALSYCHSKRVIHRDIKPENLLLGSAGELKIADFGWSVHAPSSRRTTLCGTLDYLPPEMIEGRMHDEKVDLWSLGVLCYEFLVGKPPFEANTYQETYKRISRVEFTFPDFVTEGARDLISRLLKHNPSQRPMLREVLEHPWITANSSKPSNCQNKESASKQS
- assay: Aurora A Kinase Biochemical Assay (ADP-Glo)
- test.context: ratio of Aurora A IC50 to PLK4 IC50 (selectivity)
measured.metric: [Aurora A IC50 (nM)]/[PLK4 IC50 (nM)]
Lab note: write the figure by itself, no unit.

{"columns": ["compound", "target.system", "[Aurora A IC50 (nM)]/[PLK4 IC50 (nM)]"],
 "data": [
  ["COc1ccc2c(c1)[C@]1(C[C@H]1c1ccc3c(Nc4nc(C5CC5)nc(N5CCS(=O)(=O)CC5)c4OC)n[nH]c3c1)C(=O)N2", "human recombinant Aurora A (Homo sapiens (Human), UniProt O14965)", 1785.978]
]}

Task item: What value of [Aurora A IC50 (nM)]/[PLK4 IC50 (nM)] has been reported for the following compound? `COc1ccc2c(c1)[C@]1(C[C@H]1c1ccc3c(Nc4nc(CCO)cnc4OC)n[nH]c3c1)C(=O)N2`
Reply: 1047.694
